Assay: Inhibition of SARS CoV-2 main protease using DABCYL-KTSAVLQ1SGFRKM-E(EDANS)-NH2 as substrate preincubated for 30 mins followed by substrate addition and measured after 4 hrs by multimode microplate reader assay
Design: species or system Severe acute respiratory syndrome coronavirus 2
pIC50: −log10 of the molar value. Where a SMILES comes first, the peptide text is derived from it. [ ]: non-standard residue; d: D form. The star is where a group is joined. AllylGly = C=CC[C@H](N)C(=O)O; Boc = CC(C)(C)OC(=O)*; NHBn = c1ccc(CN*)cc1; NHtBu = CC(C)(C)N*; ClAc = O=C(CCl)*
Below, each of the compounds is paired with its reported pIC50 value.

| compound | result-qualifier | pIC50 |
| --- | --- | --- |
| COC(=O)c1ccc2c(c1)c(CN(CCc1ccc(-c3ccccc3)cc1)Cc1ccccc1)cn2CC(C)C | < | 4.60 |
| C#CC[C@H](NC(=O)OC(C)(C)C)C(=O)N(Cc1ccccc1)Cc1cn(C)c2ccc(C(=O)OC)cc12 | < | 4.60 |
| C#CC[C@H](NCc1ccccc1)C(=O)N[C@@H](Cc1c[nH]c2ccccc12)C(=O)NCc1ccc(-c2ccccc2)cc1 | = | 5.54 |
| C=CC[C@H](NCc1ccccc1)C(=O)N[C@@H](Cc1c[nH]c2ccccc12)C(=O)NCc1ccc(-c2ccccc2)cc1 | < | 4.60 |
| C=CC[C@H](NC(=O)CCl)C(=O)N[C@@H](Cc1c[nH]c2ccccc12)C(=O)NCc1ccccc1 (ClAc-[AllylGly]-Trp-NHBn) | = | 5.76 |
| CC(C)(C)NC(=O)[C@H](Cc1c[nH]c2ccccc12)NC(=O)[C@H](Cc1ccccc1)NCc1ccc(-c2ccccc2)cc1 | < | 4.60 |
| CC(C)(C)NC(=O)[C@H](Cc1c[nH]c2ccccc12)NC(=O)[C@@H]1CCCN1C(=O)OC(C)(C)C (Boc-Pro-Trp-NHtBu) | = | 5.30 |
| C#CC[C@H](NCCC)C(=O)N[C@@H](Cc1c[nH]c2ccccc12)C(=O)NCc1ccc(-c2ccccc2)cc1 | = | 4.64 |
| CC(C)C[C@H](NCc1ccc(-c2ccccc2)cc1)C(=O)N[C@@H](Cc1c[nH]c2ccccc12)C(=O)NCc1ccccc1 | = | 4.63 |
| CC(C)C[C@H](NCc1ccc(-c2ccccc2)cc1)C(=O)N[C@@H](Cc1c[nH]c2ccccc12)C(=O)NC(C)(C)C | = | 5.76 |
| C#CC[C@H](NCc1ccc(-c2ccccc2)cc1)C(=O)N[C@@H](Cc1c[nH]c2ccccc12)C(=O)NC(C)(C)C | < | 4.60 |

---

Let's go through some recorded Kd values for Spike glycoprotein (Severe acute respiratory syndrome coronavirus 2) together.
Where a SMILES comes first, the peptide text is derived from it. [ ]: non-standard residue; d: D form. The star is where a group is joined. AllylGly = C=CC[C@H](N)C(=O)O; Boc = CC(C)(C)OC(=O)*; NHBn = c1ccc(CN*)cc1; NHtBu = CC(C)(C)N*; ClAc = O=C(CCl)*

| compound | Kd |
| --- | --- |
| C#CC[C@H](NC(=O)OC(C)(C)C)C(=O)N(Cc1ccccc1)Cc1cn(C)c2ccc(C(=O)OC)cc12 | 11.4 µM |
| C=CC[C@H](NC(=O)CCl)C(=O)N[C@@H](Cc1c[nH]c2ccccc12)C(=O)NCc1ccccc1 (ClAc-[AllylGly]-Trp-NHBn) | > 25 µM |
| C#CC[C@H](NCc1ccc(-c2ccccc2)cc1)C(=O)N[C@@H](Cc1c[nH]c2ccccc12)C(=O)NC(C)(C)C | > 25 µM |
| CC(C)(C)NC(=O)[C@H](Cc1c[nH]c2ccccc12)NC(=O)[C@H](Cc1ccccc1)NCc1ccc(-c2ccccc2)cc1 | 19 µM |
| C=CC[C@H](NCc1ccccc1)C(=O)N[C@@H](Cc1c[nH]c2ccccc12)C(=O)NCc1ccc(-c2ccccc2)cc1 | > 25 µM |
| CC(C)(C)NC(=O)[C@H](Cc1c[nH]c2ccccc12)NC(=O)[C@@H]1CCCN1C(=O)OC(C)(C)C (Boc-Pro-Trp-NHtBu) | > 25 µM |
| CC(C)C[C@H](NCc1ccc(-c2ccccc2)cc1)C(=O)N[C@@H](Cc1c[nH]c2ccccc12)C(=O)NC(C)(C)C | > 25 µM |
| COC(=O)c1ccc2c(c1)c(CN(CCc1ccc(-c3ccccc3)cc1)Cc1ccccc1)cn2CC(C)C | 3.26 µM |

---

System: SARS-CoV-2
Assay: Antiviral activity against Severe acute respiratory syndrome coronavirus 2 UC-1074 infected in African green monkey Vero cells assessed as reduction in plaque formation measured after 5 days by microscopic analysis
Type: functional, organism-based
Conditions: Severe acute respiratory syndrome coronavirus 2, UC-1074, Vero, 120 h
Where a SMILES comes first, the peptide text is derived from it. [ ]: non-standard residue; d: D form. The star is where a group is joined. AllylGly = C=CC[C@H](N)C(=O)O; Boc = CC(C)(C)OC(=O)*; NHBn = c1ccc(CN*)cc1; NHtBu = CC(C)(C)N*; ClAc = O=C(CCl)*

| compound | experimental-target | output-unit | result-qualifier | EC50 |
| --- | --- | --- | --- | --- |
| CC(C)C[C@H](NCc1ccc(-c2ccccc2)cc1)C(=O)N[C@@H](Cc1c[nH]c2ccccc12)C(=O)NCc1ccccc1 | SARS-CoV-2 | µM | > | 4 |
| CC(C)(C)NC(=O)[C@H](Cc1c[nH]c2ccccc12)NC(=O)[C@H](Cc1ccccc1)NCc1ccc(-c2ccccc2)cc1 | SARS-CoV-2 | µM | = | 2.19 |
| C#CC[C@H](NCc1ccccc1)C(=O)N[C@@H](Cc1c[nH]c2ccccc12)C(=O)NCc1ccc(-c2ccccc2)cc1 | SARS-CoV-2 | µM | = | 8.94 |
| CCC(CC)COC(=O)[C@H](C)N[P@](=O)(OC[C@H]1O[C@@](C#N)(c2ccc3c(N)ncnn23)[C@H](O)[C@@H]1O)Oc1ccccc1 | SARS-CoV-2 | µM | = | 0.87 |
| C#CC[C@H](NC(=O)OC(C)(C)C)C(=O)N(Cc1ccccc1)Cc1cn(C)c2ccc(C(=O)OC)cc12 | SARS-CoV-2 | µM | = | 4 |
| C#CC[C@H](NCCC)C(=O)N[C@@H](Cc1c[nH]c2ccccc12)C(=O)NCc1ccc(-c2ccccc2)cc1 | SARS-CoV-2 | µM | > | 20 |
| C#CC[C@H](NCc1ccc(-c2ccccc2)cc1)C(=O)N[C@@H](Cc1c[nH]c2ccccc12)C(=O)NC(C)(C)C | SARS-CoV-2 | µM | > | 4 |
| C=CC[C@H](NCc1ccccc1)C(=O)N[C@@H](Cc1c[nH]c2ccccc12)C(=O)NCc1ccc(-c2ccccc2)cc1 | SARS-CoV-2 | µM | = | 63.1 |
| COC(=O)c1ccc2c(c1)c(CN(CCc1ccc(-c3ccccc3)cc1)Cc1ccccc1)cn2CC(C)C | SARS-CoV-2 | µM | = | 5.98 |
| CC(C)(C)NC(=O)[C@H](Cc1c[nH]c2ccccc12)NC(=O)[C@@H]1CCCN1C(=O)OC(C)(C)C (Boc-Pro-Trp-NHtBu) | SARS-CoV-2 | µM | > | 100 |
| CC(C)C[C@H](NCc1ccc(-c2ccccc2)cc1)C(=O)N[C@@H](Cc1c[nH]c2ccccc12)C(=O)NC(C)(C)C | SARS-CoV-2 | µM | > | 4 |
| C=CC[C@H](NC(=O)CCl)C(=O)N[C@@H](Cc1c[nH]c2ccccc12)C(=O)NCc1ccccc1 (ClAc-[AllylGly]-Trp-NHBn) | SARS-CoV-2 | µM | = | 0.32 |

---

Experiment: Cytotoxicity against African green monkey Vero cells assessed as effect on cell morphology by microscopic analysis
Type: cell-based
Conditions: chlorocebus sabaeus
Where a SMILES comes first, the peptide text is derived from it. [ ]: non-standard residue; d: D form. The star is where a group is joined. AllylGly = C=CC[C@H](N)C(=O)O; Boc = CC(C)(C)OC(=O)*; NHBn = c1ccc(CN*)cc1; NHtBu = CC(C)(C)N*; ClAc = O=C(CCl)*

| compound | output-unit | result-qualifier | MCC |
| --- | --- | --- | --- |
| CC(C)(C)NC(=O)[C@H](Cc1c[nH]c2ccccc12)NC(=O)[C@@H]1CCCN1C(=O)OC(C)(C)C (Boc-Pro-Trp-NHtBu) | µM | > | 100 |
| CCC(CC)COC(=O)[C@H](C)N[P@](=O)(OC[C@H]1O[C@@](C#N)(c2ccc3c(N)ncnn23)[C@H](O)[C@@H]1O)Oc1ccccc1 | µM | > | 40 |
| CC(C)(C)NC(=O)[C@H](Cc1c[nH]c2ccccc12)NC(=O)[C@H](Cc1ccccc1)NCc1ccc(-c2ccccc2)cc1 | µM | > | 100 |
| C=CC[C@H](NCc1ccccc1)C(=O)N[C@@H](Cc1c[nH]c2ccccc12)C(=O)NCc1ccc(-c2ccccc2)cc1 | µM | > | 100 |
| C#CC[C@H](NCc1ccc(-c2ccccc2)cc1)C(=O)N[C@@H](Cc1c[nH]c2ccccc12)C(=O)NC(C)(C)C | µM | = | 20 |
| CC(C)C[C@H](NCc1ccc(-c2ccccc2)cc1)C(=O)N[C@@H](Cc1c[nH]c2ccccc12)C(=O)NC(C)(C)C | µM | = | 20 |
| C=CC[C@H](NC(=O)CCl)C(=O)N[C@@H](Cc1c[nH]c2ccccc12)C(=O)NCc1ccccc1 (ClAc-[AllylGly]-Trp-NHBn) | µM | = | 100 |
| CC(C)C[C@H](NCc1ccc(-c2ccccc2)cc1)C(=O)N[C@@H](Cc1c[nH]c2ccccc12)C(=O)NCc1ccccc1 | µM | > | 20 |
| C#CC[C@H](NC(=O)OC(C)(C)C)C(=O)N(Cc1ccccc1)Cc1cn(C)c2ccc(C(=O)OC)cc12 | µM | = | 100 |
| COC(=O)c1ccc2c(c1)c(CN(CCc1ccc(-c3ccccc3)cc1)Cc1ccccc1)cn2CC(C)C | µM | = | 100 |
| C#CC[C@H](NCc1ccccc1)C(=O)N[C@@H](Cc1c[nH]c2ccccc12)C(=O)NCc1ccc(-c2ccccc2)cc1 | µM | ≥ | 100 |
| C#CC[C@H](NCCC)C(=O)N[C@@H](Cc1c[nH]c2ccccc12)C(=O)NCc1ccc(-c2ccccc2)cc1 | µM | > | 100 |
